Target: ALK (human) (UniProt Q9UM73)
Sequence (Q9UM73 whole entry, looked up): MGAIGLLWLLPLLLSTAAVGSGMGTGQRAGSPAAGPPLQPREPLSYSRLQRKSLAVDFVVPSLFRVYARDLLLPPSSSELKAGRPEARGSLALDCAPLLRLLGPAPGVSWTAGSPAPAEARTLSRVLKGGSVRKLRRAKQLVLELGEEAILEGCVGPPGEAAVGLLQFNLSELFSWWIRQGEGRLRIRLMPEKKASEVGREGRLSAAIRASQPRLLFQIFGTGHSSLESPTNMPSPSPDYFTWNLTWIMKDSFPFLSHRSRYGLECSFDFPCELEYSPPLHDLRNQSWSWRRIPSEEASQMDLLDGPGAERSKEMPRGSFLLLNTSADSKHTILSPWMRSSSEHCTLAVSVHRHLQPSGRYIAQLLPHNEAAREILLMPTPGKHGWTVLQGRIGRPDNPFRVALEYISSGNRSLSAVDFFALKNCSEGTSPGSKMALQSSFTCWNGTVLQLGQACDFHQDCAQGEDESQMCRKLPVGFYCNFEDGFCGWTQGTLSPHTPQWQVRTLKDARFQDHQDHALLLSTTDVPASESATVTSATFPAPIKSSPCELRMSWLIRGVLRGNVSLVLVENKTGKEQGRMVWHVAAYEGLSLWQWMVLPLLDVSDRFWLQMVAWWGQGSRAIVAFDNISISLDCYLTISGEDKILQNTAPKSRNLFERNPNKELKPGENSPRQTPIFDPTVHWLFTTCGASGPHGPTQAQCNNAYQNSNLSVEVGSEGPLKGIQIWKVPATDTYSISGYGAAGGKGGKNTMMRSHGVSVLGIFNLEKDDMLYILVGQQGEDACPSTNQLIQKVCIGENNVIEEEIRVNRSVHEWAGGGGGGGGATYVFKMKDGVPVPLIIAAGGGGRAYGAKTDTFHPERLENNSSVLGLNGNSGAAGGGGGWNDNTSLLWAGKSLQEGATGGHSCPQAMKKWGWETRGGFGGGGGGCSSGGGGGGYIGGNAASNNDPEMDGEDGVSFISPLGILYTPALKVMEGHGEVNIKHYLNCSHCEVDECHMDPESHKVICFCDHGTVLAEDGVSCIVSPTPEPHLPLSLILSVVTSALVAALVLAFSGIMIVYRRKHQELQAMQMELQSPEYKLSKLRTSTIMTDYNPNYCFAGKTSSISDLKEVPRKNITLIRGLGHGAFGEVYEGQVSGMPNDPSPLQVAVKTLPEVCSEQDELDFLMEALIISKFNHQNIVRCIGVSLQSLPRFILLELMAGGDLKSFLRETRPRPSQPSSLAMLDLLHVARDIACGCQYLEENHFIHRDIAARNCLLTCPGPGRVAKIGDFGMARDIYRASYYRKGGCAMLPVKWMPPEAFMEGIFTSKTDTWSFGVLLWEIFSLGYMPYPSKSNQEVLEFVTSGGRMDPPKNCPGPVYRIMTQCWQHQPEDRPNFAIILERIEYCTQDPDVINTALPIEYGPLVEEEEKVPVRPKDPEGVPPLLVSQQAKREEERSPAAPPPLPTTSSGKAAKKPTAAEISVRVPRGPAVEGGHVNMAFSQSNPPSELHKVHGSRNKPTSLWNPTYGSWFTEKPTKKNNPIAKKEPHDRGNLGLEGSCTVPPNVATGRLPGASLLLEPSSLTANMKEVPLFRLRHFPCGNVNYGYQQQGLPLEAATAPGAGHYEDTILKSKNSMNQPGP
Assay: radiometric filter-binding kinase assay, Kinase HotSpot
Details: compound 0.5 µM; ATP 10 µM
readout_type: residual activity (%)
Please reply with the bare figure in % and do not write the unit itself.

Known results for compounds:
[[record]]
structure_smiles = "CCCCc1c(-c2ccc(OC)cc2)[nH]c2nccnc12"
readout_type = "residual activity"
endpoint_value = 96.7

[[record]]
structure_smiles = "c1ccc2c(-c3ccncc3)c[nH]c2c1"
readout_type = "residual activity"
endpoint_value = 106

[[record]]
structure_smiles = "COc1cc(Nc2c(C#N)cnc3cc(OCCCN4CCN(C)CC4)c(OC)cc23)c(Cl)cc1Cl"
readout_type = "residual activity"
endpoint_value = 66


**Q:** Given the entry COc1ccc(S(=O)(=O)N(CCO)c2ccccc2CN(C)C/C=C/c2ccc(Cl)cc2)cc1 , report its measured residual activity.
**A:** 98.1

###

Biological target: PRKCA (human) (UniProt P17252)
Assay: radiometric filter-binding kinase assay, Kinase HotSpot
Conditions: compound 0.5 µM; ATP 10 µM
readout_type: residual activity

Known results for compounds:
[[record]]
structure_smiles = "COc1ccc(Cl)cc1NC(=O)Nc1cc(C)nc2ccccc12"
readout_type = "residual activity"
endpoint_value = "132%"

[[record]]
structure_smiles = "Cn1c2ccccc2c2c3c(c4c5ccccc5n(CCC#N)c4c21)CNC3=O"
readout_type = "residual activity"
endpoint_value = "7.58%"

[[record]]
structure_smiles = "c1ccc2c(-c3ccncc3)c[nH]c2c1"
readout_type = "residual activity"
endpoint_value = "97.4%"

[[record]]
structure_smiles = "Cc1cccc(-c2nc(C(C)(C)C)[nH]c2-c2ccc3c(c2)OCO3)n1"
readout_type = "residual activity"
endpoint_value = "99.6%"

[[record]]
structure_smiles = "CC(C)(C)c1cc(C=C(C#N)C#N)cc(Br)c1O"
readout_type = "residual activity"
endpoint_value = "81.4%"

[[record]]
structure_smiles = "N#C/C(=C\\c1ccc(O)c(O)c1)C(=O)NCc1ccccc1"
readout_type = "residual activity"
endpoint_value = "99.1%"


**Q:** Given the entry O=C1c2ccccc2-c2nc3nnnn3nc21 , report its measured residual activity.
**A:** 91.4%

**Q:** Given the entry CS(=O)(=O)CCNCc1ccc(-c2ccc3ncnc(Nc4ccc(OCc5cccc(F)c5)c(Cl)c4)c3c2)o1 , report its measured residual activity.
**A:** 83%

**Q:** Given the entry CN(C)CCCn1cc(C2=C(c3c[nH]c4ccccc34)C(=O)NC2=O)c2ccccc21 , report its measured residual activity.
**A:** 6.27%

**Q:** Given the entry O=C1C(Cl)=C(N2C(=O)CCC2=O)C(=O)c2ccccc21 , report its measured residual activity.
**A:** 99.1%

**Q:** Given the entry COc1cc2ncnc(Nc3ccc(OCc4ccccc4)cc3)c2cc1OC , report its measured residual activity.
**A:** 93.9%

###

System: MAP2K6 (human), P52564 [S207E/T211E]
Sequence (P52564 whole entry S207E/T211E, looked up): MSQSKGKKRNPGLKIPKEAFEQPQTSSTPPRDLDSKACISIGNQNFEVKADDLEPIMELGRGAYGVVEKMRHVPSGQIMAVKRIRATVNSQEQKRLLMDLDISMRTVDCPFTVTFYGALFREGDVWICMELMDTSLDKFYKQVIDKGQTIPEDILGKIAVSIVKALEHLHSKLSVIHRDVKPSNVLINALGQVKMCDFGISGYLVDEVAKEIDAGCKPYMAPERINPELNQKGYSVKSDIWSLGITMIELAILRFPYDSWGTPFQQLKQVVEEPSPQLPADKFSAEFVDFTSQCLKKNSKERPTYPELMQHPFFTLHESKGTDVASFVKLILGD
Test: radiometric filter-binding kinase assay, Kinase HotSpot
Details: compound 0.5 µM; ATP 10 µM
readout_type: residual activity (%)
Please reply with the bare figure in % and do not write the unit itself.

Known results for compounds:
[[record]]
structure_smiles = "CCN(CC)CCNC(=O)c1c(C)[nH]c(/C=C2\\C(=O)Nc3ccc(Cl)cc32)c1C"
unit_annotation = "%"
endpoint_value = 86.2

[[record]]
structure_smiles = "Cc1cncc2cccc(S(=O)(=O)N3CCCN(C(=O)CN)C[C@H]3C)c12"
unit_annotation = "%"
endpoint_value = 107

[[record]]
structure_smiles = "Oc1ccc(-c2nc(-c3ccc(F)cc3)c(-c3ccncc3)[nH]2)cc1"
unit_annotation = "%"
endpoint_value = 109

[[record]]
structure_smiles = "O=S(=O)(NCCNC/C=C/c1ccc(Br)cc1)c1cccc2cnccc12"
unit_annotation = "%"
endpoint_value = 81.3


# next compound below
**Q:** Given the entry Oc1ccc(Nc2nc(-c3ccc(Cl)cc3)cs2)cc1 , report its measured residual activity.
**A:** 94

Data credit: the kinase profiling compilation of Christmann-Franck et al. (2016)
